Assignment: determine reported EC50 for the given compounds.
System: HCV 1b_Huh-Luc/Neo-ET cell line persistently expressing a bicistronic genotype 1b replicon in Huh 7 cells
Assay: HCV replicon assay (luciferase readout, 72 h)
Type: cell-based, HCV genotype 1b
Conditions: Hepatitis C virus, Huh-7, 72 h, read-out: Inhibition of HCV genotype 1b

- chem_smiles: "COC(=O)N[C@H](C(=O)N[C@@H](C)c1ncc(-c2ccc(C#Cc3ccc(-c4cnc([C@@H]5CCCN5C(=O)[C@@H](c5ccccc5)N(C)C)[nH]4)cc3)cc2)[nH]1)C(C)C"
  EC50: "< 1 nM"
- chem_smiles: "COC(=O)N[C@H](C(=O)N1CCC[C@H]1c1nc2c([nH]1)-c1ccc(C#Cc3ccc(-c4cnc([C@@H]5CCCN5C(=O)[C@H](NC(=O)OC)c5ccccc5)[nH]4)cc3F)cc1CC2)C(C)C"
  EC50: "< 1 nM"

Give its EC50 value. Item: COC(=O)N[C@@H](C(=O)N1CCC[C@H]1c1ncc(-c2ccc(C#Cc3ccc(C(=O)NC[C@@H]4CCCN4C(=O)[C@@H](c4ccccc4)N4CCCCC4)cc3)cc2)[nH]1)c1ccccc1
< 1 nM
